test_description: RPL19A-GFP modulators, yeast TOR pathway, confirmation, cell-based, S. cerevisiae, flow cytometry, cherry picks, mother/daughter gates (AID 2270)
test_settings: S. cerevisiae RPL19A-GFP strain, 3 h, at 10 µM, stronger effect = lower value, 100 = same GFP as DMSO wells
Active and inactive are the calls of the source.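 How the source made its calls: active means GFP response below 50% of the DMSO control; inconclusive means fewer than 70 events counted for a yeast strain; inactive means the rest.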
Reported GFP response vs DMSO values follow for various compounds
property_measured: GFP response vs DMSO

* CCOC(=O)/C=C1\SCC(=O)N1Cc1nnc(-c2ccccc2Br)o1 | 96.2% (inactive)
* Cc1c(Br)cc(C(=O)O)c(C)c1C | 94.4% (inactive)
* CCc1ccc(OCC(=O)NNC(=S)NC(=O)C2CC2)c(Br)c1 | 82.8% (inactive)
* COc1cc(/C=C2\N=C(c3ccccc3)OC2=O)ccc1OC(C)=O | 94.9% (inactive)
* COc1ccc(/C=N/Nc2nc(-c3cccnc3)nc3ccccc23)c(OC)c1 | 98% (inactive)
* Cn1cnnc1SCC(=O)Nc1nc(-c2ccc(F)cc2)cs1 | 100% (inactive)
* Cc1ccc(/C(C#N)=C\c2ccc(N3CCOCC3)o2)cc1 | 97.8% (inactive)
* O=[N+]([O-])c1ccc(N2CCN(CCO)CC2)cc1Sc1ccccn1 | 97.8% (inactive)
* O=C(O)c1ccccc1C(=O)N1CCN(c2ccccc2)CC1 | 99.2% (inactive)
* Cc1nc(SC2CC(=O)N(c3ccccc3)C2=O)nc2c1CCCC2 (stereo not drawn) | 95.4% (inactive)
* COc1ccccc1N=Cc1nc(-c2ccccc2)oc1OC(C)=O | 98.2% (inactive)
* O=C(CCCCCN1C(=O)c2cccc3cccc(c23)C1=O)N1CCOCC1 | 102% (inactive)
* COc1ccc(S(=O)(=O)NCC(=O)N(CC(=O)NCc2ccco2)Cc2ccc(F)cc2)cc1 | 100% (inactive)
* O=C(O)CSC1CC(=O)N(c2ccc(Cl)c(Cl)c2)C1=O (stereo not drawn) | 97.8% (inactive)
* CCCCn1c(-c2csc3c2CCCC3)n[nH]c1=S | 91.5% (inactive)
* COC(=O)c1ccc(CS(=O)(=O)c2ccc(F)cc2)o1 | 97.8% (inactive)
* Cc1ccsc1C(=O)N(Cc1nnc(-c2ccccc2Cl)o1)C1CC1 | 95.8% (inactive)
* Cc1ccc(C2=NN(S(C)(=O)=O)C(c3ccc4nccnc4c3)C2)cc1 (stereo not drawn) | 98.6% (inactive)
* CC1=CCC(C(=O)O)C(C(=O)Nc2ccc(-c3nc4ccc(C)cc4s3)cc2)C1 (stereo not drawn) | 99.2% (inactive)
* O=C(N/N=C\c1ccc(F)cc1)c1cc(OCC(F)(F)F)ccc1OCC(F)(F)F | 99.1% (inactive)
* CC(C)C(=O)NC(c1cccs1)c1cc([N+](=O)[O-])c2cccnc2c1O (stereo not drawn) | 95.8% (inactive)
* O=C(O)C1Sc2[nH]c(=O)sc2C2c3cc(Br)ccc3OC(=O)C12 (stereo not drawn) | 96.3% (inactive)
* O=S1(=O)Nc2c(ccc3cccnc23)-c2ccccc21 | 89.9% (inactive)
* CCNC(=O)/C(C#N)=C/c1c(N2CCN(Cc3ccc4c(c3)OCO4)CC2)nc2c(C)cccn2c1=O | 101% (inactive)
* COc1ccc(NC(=O)/C(Cl)=C(/Cl)S(=O)Cc2ccccc2)cn1 (stereo not drawn) | 104% (inactive)
* O=C1CC(Sc2ncccn2)C(=O)N1c1ccccc1C(F)(F)F (stereo not drawn) | 100% (inactive)
* CCOC(=O)C1=C(c2ccccc2)NC(=S)NC1c1cc([N+](=O)[O-])ccc1OC (stereo not drawn) | 94% (inactive)
* CCCN(Cc1nnc(-c2ccccc2Cl)o1)C(=O)c1cc([N+](=O)[O-])cc([N+](=O)[O-])c1 | 97.3% (inactive)
* O=C(CCc1nc(-c2ccccc2)no1)Nc1cc(C(F)(F)F)ccc1Cl | 105% (inactive)
* COCCN(CCOC)S(=O)(=O)c1ccc(C(=O)Nc2nnc(C3CC3)o2)cc1 | 101% (inactive)
* COc1ccc(CN2CN(C(C)C)CSC2=S)cc1 | 98.8% (inactive)
* CCCc1[nH]nc2c1C(c1cccc(OC(=O)c3ccco3)c1)C(C#N)=C(N)O2 (stereo not drawn) | 98.5% (inactive)
* Cc1cccc(NC(=O)c2nc(S(=O)(=O)Cc3ccccc3)ncc2Cl)c1 | 93.1% (inactive)
* COc1ccc(N=Cc2nc(-c3ccccc3)oc2OC(C)=O)cc1 | 100% (inactive)
* COc1ccc(C2CC(c3c(-c4ccccc4)c4cc(Cl)ccc4[nH]c3=O)=NN2S(C)(=O)=O)cc1OC (stereo not drawn) | 99.6% (inactive)
* CCOc1ccccc1N1CCN(C(=O)c2ccccc2)CC1 | 97.6% (inactive)
* CCOC(=O)C1CCCN(C(=O)c2ccc(-c3ccc([N+](=O)[O-])cc3)o2)C1 (stereo not drawn) | 99.8% (inactive)
* Cc1noc2ncnc(Sc3ccc(Cl)cc3)c12 | 96.6% (inactive)
* Cc1ccc(/C=N/NC(=O)c2ccccn2)s1 | 99.2% (inactive)
* CC(C)COC(=O)NCC12C=CC(O1)C1C(=O)N(c3ccc(Cl)cc3)C(=O)C12 (stereo not drawn) | 99.6% (inactive)
* COCCCN1C(=O)C2C(C(=O)Nc3cc(C)cc(C)c3)C3C=CC2(O3)C1C(=O)NC1CCCCC1 (stereo not drawn) | 100% (inactive)
* COc1cc(NC(=O)c2cccs2)ccc1NC(=O)c1cc2ccccc2o1 | 97% (inactive)
* N#C/C(=C\c1c(N2CCN(c3ccccc3)CC2)nc2ccccn2c1=O)C(N)=O | 104% (inactive)

* * *

test_description: LAP4-GFP expression modulators in yeast, confirmation, cell-based, cherry picks, flow cytometry, mother/daughter gates (AID 2271);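 further: ratio of sample to DMSO plate mean so 100% equals DMSO level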
test_settings: S. cerevisiae LAP4-GFP strain, 3 h, measured here: daughter cell gate response, at 10 µM, stronger effect = higher value, 100 means same as DMSO control
property_measured: GFP response relative to DMSO

• Cc1cc(O)ccc1NC(=O)c1ccccc1 = 92.8%
• CCCCCCNC(=O)c1c(O)c2cccc3c2n(c1=O)CCC3 = 97.6%
• CSc1nc(N2CCN(c3ccccc3Cl)CC2)c2ccccc2n1 = 101%
• CCOc1ccccc1NC(=O)c1nc(S(=O)(=O)Cc2cccc(C)c2)ncc1Cl = 102%
• Cc1c(C)c2ccc(OCC(=O)NCCCn3ccnc3)cc2oc1=O = 96%
• C/C(=N\NC(=O)c1cccc(Cl)c1)c1cccc(NC(=O)C(C)C)c1 = 94.4%

* * *

test_description: modulators of AGP1-GFP expression in yeast TOR pathway, primary screen, cell-based, multiplex flow cytometry, S. cerevisiae (AID 1887);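 further: AGP1-GFP fusion strain of S. cerevisiae within a five-strain barcoded multiplex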
test_settings: 3 h, at 10 µM, stronger effect = higher value
Inconclusive results are not listed.
Reported GFP response, % of DMSO values follow for various compounds
property_measured: GFP response, % of DMSO (%)

• Cn1c(=O)[nH]c(=O)c2c1ncn2CCN1CCOCC1 = 97.3
• Cc1cc(OC(C(=O)O)c2ccccc2)c2c(C)c(Cc3ccccc3)c(=O)oc2c1 (configuration not stated) = 95.1
• O=S(=O)(NCCCCCNS(=O)(=O)c1ccccc1)c1ccccc1 = 92.8
• CC(=O)OCC(=O)[C@@]12OC3(CCCC3)O[C@@H]1C[C@H]1[C@@H]3CCC4=CC(=O)C=C[C@]4(C)[C@@]3(F)[C@@H](O)C[C@@]12C = 101
• COc1ccc(CCNC(=O)C(=O)Nc2ccc3c(c2)OCO3)cc1OC = 101
• Cc1nc(C(=O)Nc2ccccc2Cl)cc2c1[nH]c1ccccc12 = 98.2
• O=[N+]([O-])c1ccc2cn[nH]c2c1 = 97.3
• COc1cccc(OCc2cc(C3Nc4ccccc4C(=O)N3Cc3ccco3)ccc2OC)c1 (configuration not stated) = 88.9
• CCOC(=O)c1cccc(C(=O)OCC)n1 = 95.7
• CCCC1O[C@@H]2C[C@H]3[C@@H]4CCC5=CC(=O)C=C[C@]5(C)[C@H]4[C@@H](O)C[C@]3(C)[C@]2(C(=O)CO)O1 (some centres not stated) = 106
• CN(C)CCCN1c2ccccc2CCc2ccc(Cl)cc21 = 97.1
• CCCCNc1cc(C(=O)O)cc(S(N)(=O)=O)c1Oc1ccccc1 = 102
• COCCn1c(/C=C/c2ccccc2)nc2ccccc21 = 87.9
• CC1(C)NC(C(=O)O)Cc2c1[nH]c1ccccc21 (configuration not stated) = 105
• COc1ccc(-c2onc(C)c2-c2ccc(C(=O)OC(C)C)o2)c(O)c1 = 90.1
• CN(Cc1ccccc1)CC(O)COc1ccc(CNCc2cccnc2)cc1 (configuration not stated) = 100
• O=C(/C=C/c1ccc(Cl)cc1)NCCc1ccccc1 = 97.5
• COc1ccc(CNC(=O)C2CCN(C(=O)[C@@H](CC(C)C)NC(=O)OC(C)(C)C)CC2)cc1 = 92.7
• CC(C)(C)[C@]1(O)CCN2C[C@H]3c4ccccc4CCc4cccc(c43)[C@@H]2C1 = 107
• CC(=O)O[C@H]1CSC[C@H]1NC(=O)c1ccccc1 = 101
• CCOc1cc(C)cc2oc(=O)cc(-c3ccccc3)c12 = 92.8
• O=P(O)(O)CP(=O)(O)O = 122
